- measurementProtocol: CCTE_Deisenroth_DEVTOX-GLR_Endo_CellCount: Viability Assessment in CCTE's DevTox GLR-Endo Assay, Deisenroth Lab (AID 2284420)
Activity calls are given as the source filed them. Rule for the calls: active = hit-call score of the fitted dose curve at least 0.9, where 1 is the maximum; inactive = score below 0.9.
Outcome codes: 1.0 = active, 0.0 = inactive

INSERT INTO results (compound, assignedlabel) VALUES
  ('Oc1cc(O)c2c(c1)O[C@H](c1ccc(O)c(O)c1)[C@@H](O)C2', 1.0),
  ('Nc1cccc2c1C(=O)N(C1CCC(=O)NC1=O)C2=O (centres undefined)', 1.0),
  ('c1cc(-c2cnn3cc(-c4ccc(OCCN5CCCCC5)cc4)cnc23)ccn1', 1.0),
  ('Nc1nc2c(ncn2COCCO)c(=O)[nH]1', 0.0);

---

- measurementProtocol: CCTE_Mundy_HCI_iCellGluta_NOG_NeuriteLength: CCTE's Neurite Outgrowth Assay in iCellGluta cells for Neurite Length, Mundy Lab (AID 2284318)
Results filed as inconclusive are left out. Calls of active or inactive are those of the source. How the source made its calls: active means hit-call score of the fitted dose curve at least 0.9, where 1 is the maximum; inconclusive means response in the unintended direction; inactive means score below 0.9.
Outcome codes: active, inactive

INSERT INTO assay_data (compound, assignedlabel) VALUES
  ('O=C1CC2(CCCC2)CC(=O)N1CCCCN1CCN(c2ncccn2)CC1', 'inactive'),
  ('Cc1[nH]n(C)c(=O)c1C(=O)c1ccc(C(F)(F)F)cc1S(C)(=O)=O', 'inactive'),
  ('CC(=O)N[C@@H](CC(=O)O)C(=O)O', 'inactive'),
  ('CC(CNC(=S)[S-])NC(=S)[S-].[Zn+2] (configuration not stated)', 'active'),
  ('BrC1CC(Br)CC(Br)CC(Br)CC(Br)CC(Br)C1 (configuration not stated)', 'active'),
  ('CC(C)c1nn(C(=O)NC(C)(C)C)c(=O)n1N', 'inactive'),
  ('C[C@@H]1CC[C@@H](C(C)(C)O)[C@H](O)C1', 'inactive');

---

- measurementProtocol: IUF_NPC2-5_viability_120hr: Viability Assessment at 120 hours in the Leibniz Research Institute for Environmental Medicine (IUF) Neural Progenitor Cell Migration and Differentiation Assay (NPC2-5) (AID 2284312)
Active and inactive are the calls of the source. The calls were made as follows: active = hit-call score of the fitted dose curve at least 0.9, where 1 is the maximum; inactive = score below 0.9.
Outcome codes: active, inactive

INSERT INTO measurements (compound, assignedlabel) VALUES
  ('CN(C)CCCn1cc(C2=C(c3c[nH]c4ccccc34)C(=O)NC2=O)c2ccccc21', 'active'),
  ('CCc1ccccc1', 'inactive'),
  ('CC(=O)N[C@@H](CC(=O)O)C(=O)O', 'inactive'),
  ('C[C@@H]1CCO[C@H]2Cn3cc(C(=O)NCc4ccc(F)cc4F)c(=O)c(O)c3C(=O)N12', 'inactive'),
  ('CC(CNC(=S)[S-])NC(=S)[S-].[Zn+2] (stereo unspecified)', 'inactive'),
  ('C[C@@H]1CC[C@@H](C(C)(C)O)[C@H](O)C1', 'inactive'),
  ('CCCCOCCOP(=O)(O)OCCOCCCC', 'inactive'),
  ('Cc1[nH]n(C)c(=O)c1C(=O)c1ccc(C(F)(F)F)cc1S(C)(=O)=O', 'inactive'),
  ('O=C1CC2(CCCC2)CC(=O)N1CCCCN1CCN(c2ncccn2)CC1', 'inactive'),
  ('CCCCCC(C)(CC)C(=O)NC (stereo unspecified)', 'inactive'),
  ('CCCCCC=C(C)C(CC)CCO (stereo unspecified)', 'inactive');

---

- measurementProtocol: CCTE_Mundy_HCI_hNP1_CellTiter: CCTE's Cell Titer-Glo 2 Assay in human neuroprogenitor cells for Viability, Mundy Lab (AID 2284241)
Records with an inconclusive call do not appear. Activity calls are given as the source filed them. How the source made its calls: active means hit-call score of the fitted dose curve at least 0.9, where 1 is the maximum; inconclusive means response in the unintended direction; inactive means score below 0.9.
Outcome codes: active, inactive

INSERT INTO measurements (compound, assignedlabel) VALUES
  ('CCCCCC(C)(CC)C(=O)NC (stereo not given)', 'inactive'),
  ('Cc1[nH]n(C)c(=O)c1C(=O)c1ccc(C(F)(F)F)cc1S(C)(=O)=O', 'inactive'),
  ('C[C@@H]1CC[C@@H](C(C)(C)O)[C@H](O)C1', 'inactive'),
  ('CC(C)O', 'inactive'),
  ('CC(=O)N[C@@H](CC(=O)O)C(=O)O', 'inactive'),
  ('CC(CNC(=S)[S-])NC(=S)[S-].[Zn+2] (stereo not given)', 'inactive'),
  ('O=C1CC2(CCCC2)CC(=O)N1CCCCN1CCN(c2ncccn2)CC1', 'inactive'),
  ('O=C(CC(=O)C(F)(F)F)C(F)(F)F', 'inactive'),
  ('C[C@@H]1CCO[C@H]2Cn3cc(C(=O)NCc4ccc(F)cc4F)c(=O)c(O)c3C(=O)N12', 'active'),
  ('F', 'inactive');

---

- Tested on: SRY-box transcription factor 2 (SOX2) Protein Expression, Deisenroth Lab, SOX2 (gene 6657)
- measurementProtocol: CCTE_Deisenroth_DEVTOX-GLR_legacy_Sox2: (Legacy) CCTE's DevTox GLR-Endo Assay Evaluation of SRY-box transcription factor 2 (SOX2) Protein Expression, Deisenroth Lab (AID 2284346)
- Protocol: CCTE_Deisenroth_DEVTOX-GLR_legacy assay is a cell-based, multiplex-readout assay that uses RUES2-GLR, a human pluripotent cell line, with measurements taken at 48 hours after chemical dosing in a 384-well microplateCCTE_Deisenroth_DEVTOX-GLR_legacy_Sox2 is one of 4 assay components calculated from the CCTE_Deisenroth_DEVTOX-GLR_legacy assay that measures an increase in the percentage of cells in an ectodermal or pluripotent state. […]
The source made the active and inactive calls. The calls were made as follows: active = hit-call score of the fitted dose curve at least 0.9, where 1 is the maximum; inactive = score below 0.9.
Outcome codes: active, inactive

INSERT INTO assay_data (compound, assignedlabel) VALUES
  ('Nc1nc2c(ncn2COCCO)c(=O)[nH]1', 'inactive'),
  ('NC(=O)c1ccc(-c2nc(-c3ccc4c(c3)OCO4)c(-c3ccccn3)[nH]2)cc1', 'inactive'),
  ('CC1(C)S[C@@H]2[C@H](NC(=O)Cc3ccccc3)C(=O)N2[C@H]1C(=O)O', 'inactive'),
  ('Nc1cccc2c1C(=O)N(C1CCC(=O)NC1=O)C2=O (stereo not given)', 'active'),
  ('COc1ccc2[nH]c([S@@](=O)Cc3ncc(C)c(OC)c3C)nc2c1', 'active');

---

- measurementProtocol: CCTE_Shafer_MEA_dev_burst_rate: CCTE's Neural Network Formation Assay for Burst Rate, Shafer Lab (AID 2284042)
Activity calls are given as the source filed them. How the source made its calls: active means hit-call score of the fitted dose curve at least 0.9, where 1 is the maximum; inactive means score below 0.9.
Outcome codes: 1 (yes) for active, 0 (no) for inactive

INSERT INTO results (compound, assignedlabel) VALUES
  ('c1ccc2c(c1)ccc1c3ccccc3ccc21', '0 (no)'),
  ('[O]=[V]([OH])([OH])[OH]', '0 (no)'),
  ('CC(=O)N[C@@H](CC(=O)O)C(=O)O', '0 (no)'),
  ('F', '0 (no)'),
  ('BrC1CC(Br)CC(Br)CC(Br)CC(Br)CC(Br)C1 (configuration not stated)', '1 (yes)'),
  ('Brc1cc(Br)c(Oc2cc(Br)c(Br)cc2Br)cc1Br', '0 (no)'),
  ('CN(C)CCCn1cc(C2=C(c3c[nH]c4ccccc34)C(=O)NC2=O)c2ccccc21', '1 (yes)'),
  ('CC(C)O', '0 (no)'),
  ('c1cc2c3c(c1)ccc1cccc(c13)C2', '0 (no)'),
  ('CCCCCC=C(C)C(CC)CCO (configuration not stated)', '0 (no)'),
  ('Cc1[nH]n(C)c(=O)c1C(=O)c1ccc(C(F)(F)F)cc1S(C)(=O)=O', '0 (no)'),
  ('O=C1CC2(CCCC2)CC(=O)N1CCCCN1CCN(c2ncccn2)CC1', '0 (no)');

---

- measurementProtocol: CCTE_Shafer_MEA_dev_network_spike_duration_std: CCTE's Neural Network Formation Assay for Standard Deviation of Network Spike Duration, Shafer Lab (AID 2284052);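 note: area under curve of spike duration SD across recording days 5 to 12; hits are decreases in network spike duration SD versus DMSO vehicle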
- Procedure: CCTE_Shafer_MEA_dev assay is conducted using Axion Biosystems 48 well microelectrode array (MEA) plates and Maestro recording system. Each well of the MEA plate contains a grid of 16 microelectrodes embedded in the culture surface. Electrically active cells, such as neurons, can be cultured over the electrodes, and electrical activity in these cells can be recorded extracellularly. […]
Active and inactive are the calls of the source. How the source made its calls: active means hit-call score of the fitted dose curve at least 0.9, where 1 is the maximum; inactive means score below 0.9.
Outcome codes: T for active, F for inactive

INSERT INTO assay_data (molecule, assignedlabel) VALUES
  ('F', 'F'),
  ('Brc1cc(Br)c(Oc2cc(Br)c(Br)cc2Br)cc1Br', 'F'),
  ('CCCCCC=C(C)C(CC)CCO (stereo not given)', 'F'),
  ('CC(C)c1nn(C(=O)NC(C)(C)C)c(=O)n1N', 'F'),
  ('CC(CNC(=S)[S-])NC(=S)[S-].[Zn+2] (stereo not given)', 'T');

---

- measurementProtocol: CCTE_Mundy_HCI_iCellGluta_NOG_NeuriteCount: CCTE's Neurite Outgrowth Assay in iCellGluta cells for Neurite Count, Mundy Lab (AID 2284342);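 note: chemical exposure about 48 hours starting 2 hours after plating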
Inconclusive results are not listed. Active and inactive are the calls of the source. Rule for the calls: active = hit-call score of the fitted dose curve at least 0.9, where 1 is the maximum; inconclusive = response in the unintended direction; inactive = score below 0.9.
Outcome codes: 1 (active), -1 (inactive)

INSERT INTO assay_data (compound, assignedlabel) VALUES
  ('CCCCCC(C)(CC)C(=O)NC (configuration not stated)', -1),
  ('O=C(CC(=O)C(F)(F)F)C(F)(F)F', -1),
  ('Cc1[nH]n(C)c(=O)c1C(=O)c1ccc(C(F)(F)F)cc1S(C)(=O)=O', -1),
  ('C[C@@H]1CC[C@@H](C(C)(C)O)[C@H](O)C1', -1),
  ('BrC1CC(Br)CC(Br)CC(Br)CC(Br)CC(Br)C1 (configuration not stated)', 1),
  ('CC(CNC(=S)[S-])NC(=S)[S-].[Zn+2] (configuration not stated)', 1),
  ('CC(=O)N[C@@H](CC(=O)O)C(=O)O', -1);
